Reported ΔTm values follow for various compounds
System: DNA
procedureText: Binding affinity to calf thymus DNA at 1:5 (compound:DNA) molar ratio in pH 7.0, 37 degC after 36 hrs by thermal denaturation study
studyConditions: Bos taurus
Kindly format the answer as number then unit.

**Q:** // query ΔTm value for entry COc1cc2c(cc1OCCCCOc1cc3c(cc1OC)C(=O)N1C[C@H](F)C[C@H]1C=N3)N=C[C@@H]1C[C@@H](F)CN1C2=O
**A:** 14 °C

**Q:** // query ΔTm value for entry COc1cc2c(cc1O)N=C[C@@H]1CCCN1C2=O
**A:** 0.7 °C

**Q:** // query ΔTm value for entry COc1cc2c(cc1OCCCOc1cc3c(cc1OC)C(=O)N1C[C@H](F)C[C@H]1C=N3)N=C[C@@H]1C[C@@H](F)CN1C2=O
**A:** 6.2 °C

---
**Q:** // query ΔTm value for entry COc1cc2c(cc1OCCCCCOc1cc3c(cc1OC)C(=O)N1C[C@H](F)C[C@H]1C=N3)N=C[C@@H]1C[C@@H](F)CN1C2=O
**A:** 18.8 °C

**Q:** // query ΔTm value for entry COc1cc2c(cc1O)N=C[C@@H]1C[C@@H](F)CN1C2=O
**A:** 2.3 °C

###

Test system: DNA
procedureText: Binding affinity to calf thymus DNA at 1:5 (compound:DNA) molar ratio in pH 7.0, 37 degC after 18 hrs by thermal denaturation study
Type: nucleic-acid assay
studyConditions: Bos taurus
Labelling: ΔTm reported below 10 °C becomes met; at or above becomes not met.

**Q:** Take the compound COc1cc2c(cc1O)N=C[C@@H]1CCCN1C2=O and say whether its ΔTm is less than 10 °C.
**A:** met

**Q:** Take the compound COc1cc2c(cc1OCCCOc1cc3c(cc1OC)C(=O)N1CCC[C@H]1C=N3)N=C[C@@H]1CCCN1C2=O and say whether its ΔTm is less than 10 °C.
**A:** not met

###

Test system: DNA
procedureText: Binding affinity to calf thymus DNA at 1:5 (compound:DNA) molar ratio in pH 7.0, 37 degC after 18 hrs by thermal denaturation study
Assay type: nucleic-acid assay
studyConditions: Bos taurus
Reported ΔTm values follow for various compounds
The figure you give is taken to be in °C; do not add the unit.

# annotated cases, reported ΔTm shown
**Q:** // query ΔTm value for entry COc1cc2c(cc1OCCCCCOc1cc3c(cc1OC)C(=O)N1C[C@H](F)C[C@H]1C=N3)N=C[C@@H]1C[C@@H](F)CN1C2=O
**A:** 16.9

**Q:** // query ΔTm value for entry COc1cc2c(cc1O)N=C[C@@H]1C[C@@H](F)CN1C2=O
**A:** 2.1

**Q:** // query ΔTm value for entry COc1cc2c(cc1OCCCCOc1cc3c(cc1OC)C(=O)N1C[C@H](F)C[C@H]1C=N3)N=C[C@@H]1C[C@@H](F)CN1C2=O
**A:** 12.4

Continue with the next compound.
**Q:** // query ΔTm value for entry COc1cc2c(cc1OCCCOc1cc3c(cc1OC)C(=O)N1C[C@H](F)C[C@H]1C=N3)N=C[C@@H]1C[C@@H](F)CN1C2=O
**A:** 5.2
